ASSAY INFO: self-splicing fitness, log relative to wild type (ln ratio); higher = more splicing; Tetrahymena group I intron in knt gene, E. coli kanamycin selection, DiMSum; sequences stand for … in CUCUCU…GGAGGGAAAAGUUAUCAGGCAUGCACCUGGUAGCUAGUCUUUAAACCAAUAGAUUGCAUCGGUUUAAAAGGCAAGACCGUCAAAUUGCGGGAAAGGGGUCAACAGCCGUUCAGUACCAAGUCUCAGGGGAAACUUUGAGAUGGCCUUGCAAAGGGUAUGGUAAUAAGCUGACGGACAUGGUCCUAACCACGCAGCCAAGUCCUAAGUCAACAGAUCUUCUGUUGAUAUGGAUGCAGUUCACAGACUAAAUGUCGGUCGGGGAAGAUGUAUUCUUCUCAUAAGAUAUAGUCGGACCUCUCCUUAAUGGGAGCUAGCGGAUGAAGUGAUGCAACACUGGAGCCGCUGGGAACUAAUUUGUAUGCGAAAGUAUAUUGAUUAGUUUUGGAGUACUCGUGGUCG;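 also: selection with 25 µg/mL kanamycin versus none on LB agar overnight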
EXPERIMENTAL PARAMETERS: 30 °C
self-splicing fitness (ln) values by entry
REPORTED ENDPOINT: self-splicing fitness (ln)

INSERT INTO results (seq, measured_value) VALUES
  ('GGCGAGCAAUAUUACGAGCA', -1.44),
  ('CAUCAGCAAUAUUACGAGGA', -3.13),
  ('UGAAAGCAAUAUUACGCGUU', -3.19),
  ('UUCAAGCAAUAUUACGCGCG', -1.39),
  ('ACCGAGCAAUAUUACGGGGA', -1.87),
  ('UGCCAGCAAUAUUACGCGUC', -2.05),
  ('CCACAGCAAUAUUACGACUU', -4),
  ('CGAGAGCAAUAUUACGACCU', -0.7);

====

self-splicing fitness (ln) values by entry
ASSAY INFO: self-splicing fitness, log relative to wild type (ln ratio); higher = more splicing; Tetrahymena group I intron in knt gene, E. coli kanamycin selection, DiMSum; sequences stand for … in CUCUCU…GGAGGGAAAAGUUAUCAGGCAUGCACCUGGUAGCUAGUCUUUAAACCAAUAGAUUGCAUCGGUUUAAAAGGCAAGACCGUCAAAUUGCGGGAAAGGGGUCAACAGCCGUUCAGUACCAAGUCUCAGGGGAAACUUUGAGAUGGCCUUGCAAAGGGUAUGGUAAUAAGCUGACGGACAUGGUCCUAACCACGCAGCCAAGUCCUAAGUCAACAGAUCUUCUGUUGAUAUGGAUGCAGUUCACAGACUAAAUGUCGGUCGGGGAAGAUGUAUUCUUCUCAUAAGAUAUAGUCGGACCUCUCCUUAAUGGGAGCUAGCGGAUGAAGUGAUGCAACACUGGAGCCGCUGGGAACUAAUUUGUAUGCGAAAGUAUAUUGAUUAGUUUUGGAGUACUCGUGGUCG
EXPERIMENTAL PARAMETERS: 37 °C
REPORTED ENDPOINT: self-splicing fitness (ln)

INSERT INTO results (seq, reported_endpoint, measured_value) VALUES
  ('GAGAAGCAAUAUUACGAACA', 'self-splicing fitness (ln)', -1.57),
  ('AUCCAGCAAUAUUACGCGGG', 'self-splicing fitness (ln)', -2.42),
  ('AAUGAGCAAUAUUACGCGCA', 'self-splicing fitness (ln)', -1.76),
  ('GAGUAGCAAUAUUACGUCCU', 'self-splicing fitness (ln)', 0.18),
  ('CUGCAGCAAUAUUACGGUCA', 'self-splicing fitness (ln)', -2.18),
  ('GGUAAGCAAUAUUACGGUCG', 'self-splicing fitness (ln)', -0.215),
  ('CGUGAGCAAUAUUACGGACG', 'self-splicing fitness (ln)', -1.31),
  ('GUUAAGCAAUAUUACGCGGG', 'self-splicing fitness (ln)', -1.69),
  ('GAGGAGCAAUAUUACGAUCU', 'self-splicing fitness (ln)', -0.217),
  ('CUGGAGCAAUAUUACGUUGG', 'self-splicing fitness (ln)', -1.86),
  ('UAGAAGCAAUAUUACGCUUA', 'self-splicing fitness (ln)', -0.832),
  ('UACAAGCAAUAUUACGCCGC', 'self-splicing fitness (ln)', -2.06),
  ('CCAAAGCAAUAUUACGACAC', 'self-splicing fitness (ln)', -3.02),
  ('GAAUAGCAAUAUUACGCAGA', 'self-splicing fitness (ln)', -1.34),
  ('GGGCAGCAAUAUUACGCGUU', 'self-splicing fitness (ln)', -0.349),
  ('GCCCAGCAAUAUUACGAUGG', 'self-splicing fitness (ln)', -2.98),
  ('AUAAAGCAAUAUUACGGACA', 'self-splicing fitness (ln)', 0.131),
  ('ACGUAGCAAUAUUACGCAUU', 'self-splicing fitness (ln)', -0.657),
  ('UUCGAGCAAUAUUACGUAUA', 'self-splicing fitness (ln)', -2.78),
  ('AAUCAGCAAUAUUACGUAGU', 'self-splicing fitness (ln)', 0.211),
  ('UGAGAGCAAUAUUACGGGCA', 'self-splicing fitness (ln)', -0.806),
  ('GCUCAGCAAUAUUACGGCAC', 'self-splicing fitness (ln)', -0.084),
  ('GGUCAGCAAUAUUACGAUCU', 'self-splicing fitness (ln)', -1.93),
  ('GCACAGCAAUAUUACGUUCA', 'self-splicing fitness (ln)', -0.855),
  ('UCAAAGCAAUAUUACGCCCC', 'self-splicing fitness (ln)', -1.54),
  ('AGGAAGCAAUAUUACGGGUA', 'self-splicing fitness (ln)', -1.6),
  ('UCUAAGCAAUAUUACGAACU', 'self-splicing fitness (ln)', -2.26),
  ('CAGCAGCAAUAUUACGCAAA', 'self-splicing fitness (ln)', -1.77),
  ('ACUAAGCAAUAUUACGCUCC', 'self-splicing fitness (ln)', -0.322),
  ('CACCAGCAAUAUUACGCCUC', 'self-splicing fitness (ln)', -1.9),
  ('GUAAAGCAAUAUUACGCUCG', 'self-splicing fitness (ln)', 0.709),
  ('GGACAGCAAUAUUACGGGCA', 'self-splicing fitness (ln)', -0.477),
  ('CUCGAGCAAUAUUACGAGCG', 'self-splicing fitness (ln)', -2.84),
  ('GGAUAGCAAUAUUACGUUGU', 'self-splicing fitness (ln)', -1.58);
